# system name: Recombinant human PDE4B (Homo sapiens, UniProt Q07343)
# Construct: amino acid 305-end; GST (N)
# Sequence (Q07343 305-736 limits assumed): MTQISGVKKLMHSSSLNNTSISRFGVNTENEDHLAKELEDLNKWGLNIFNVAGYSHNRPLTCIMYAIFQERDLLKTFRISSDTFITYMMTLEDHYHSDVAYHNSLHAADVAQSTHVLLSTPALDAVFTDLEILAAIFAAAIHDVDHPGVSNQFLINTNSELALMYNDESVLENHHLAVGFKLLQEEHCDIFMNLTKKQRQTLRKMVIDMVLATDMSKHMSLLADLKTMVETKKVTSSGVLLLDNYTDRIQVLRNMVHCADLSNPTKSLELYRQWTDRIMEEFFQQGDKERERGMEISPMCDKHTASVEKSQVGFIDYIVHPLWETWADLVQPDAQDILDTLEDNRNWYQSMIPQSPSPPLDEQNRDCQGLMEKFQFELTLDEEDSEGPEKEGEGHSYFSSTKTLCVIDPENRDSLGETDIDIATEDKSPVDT
# experiment: Inhibitory activity of the compounds against PDE 4B (fluorescence polarization, Transcreener AMP2/GMP2)
# condition label: recombinant human PDE4B (aa 305-end, GST tag); 1 μM cAMP; 1 hour at room temperature
pIC50: −log10 of the molar value.
Tick 1 (yes) if pIC50 is 8 or greater. Tick 0 (no) if pIC50 is less than 8.

> print(dat)
                         chemical.structure  class.label
1  CCOc1cc([C@@H](CS(C)(=O)=O)n2c(=O)n(C3CC3)c3cc(F)ccc32)ccc1OC       0 (no)
2  CCOc1cc([C@@H](CS(C)(=O)=O)n2c(=O)[nH]c3c(-c4cccs4)cccc32)ccc1OC      1 (yes)
3  CCOc1cc([C@@H](CS(C)(=O)=O)n2c(=O)n(CC(F)(F)F)c3cc(F)ccc32)ccc1OC       0 (no)
4  CCOc1cc([C@@H](CS(C)(=O)=O)n2c(=O)[nH]c3c(C(=O)N4CCCC4)cccc32)ccc1OC      1 (yes)
5  CCOc1cc([C@@H](CS(C)(=O)=O)n2c(=O)[nH]c3cc(-c4ccccc4CC)ccc32)ccc1OC      1 (yes)
6  CCOc1cc([C@@H](CS(C)(=O)=O)n2c(=O)n(C)c3cc(C(F)(F)F)ccc32)ccc1OC       0 (no)
7  CCOc1cc([C@@H](CS(C)(=O)=O)n2c(=O)[nH]c3cc(Br)cc(F)c32)ccc1OC      1 (yes)

----------
Examples of compounds with documented pIC50 follow.
# system name: Recombinant human PDE4B (Homo sapiens)
# Construct: amino acid 305-end; GST (N)
# experiment: Inhibitory activity of the compounds against PDE 4B (fluorescence polarization, Transcreener AMP2/GMP2)
# condition label: recombinant human PDE4B (aa 305-end, GST tag); 1 μM cAMP; 1 hour at room temperature
pIC50: −log10 of the molar value.
measurement kind: pIC50

> print(dat)
                         chemical.structure  reported.result
1  CCOc1cc([C@@H](CS(C)(=O)=O)n2c(=O)[nH]c3cc(-c4nccnc4C)ccc32)ccc1OC             8.07
2  CCOc1cc([C@@H](CS(C)(=O)=O)n2c(=O)n(CCOC)c3cc(Cl)ccc32)ccc1OC             8.17
3  CCOc1cc([C@@H](CS(C)(=O)=O)n2c(=O)n(CC)c3cc(Cl)ccc32)ccc1OC             8.00
4  CCOc1cc([C@@H](CS(C)(=O)=O)n2c(=O)n(C)c3cc(-c4ccccc4F)ccc32)ccc1OC             9.15

----------
Measured pIC50 accompanies every entry in the list below.
# system name: Recombinant human PDE4B (Homo sapiens)
# Construct: amino acid 305-end; GST (N)
# experiment: Inhibitory activity of the compounds against PDE 4B (fluorescence polarization, Transcreener AMP2/GMP2)
# condition label: recombinant human PDE4B (aa 305-end, GST tag); 1 μM cAMP; 1 hour at room temperature
pIC50: −log10 of the molar value.
measurement kind: pIC50

> print(dat)
                                   compound                             system.name  value.modifier  reported.result
1  CCOc1cc([C@@H](CS(C)(=O)=O)n2c(=O)[nH]c3cc(C(=O)OCC(F)(F)F)ccc32)ccc1OC [WX033]  Recombinant human PDE4B (Homo sapiens)               =             8.96
2  CCOc1cc([C@@H](CS(C)(=O)=O)n2c(=O)n(CC#N)c3cc(-c4ccccc4F)ccc32)ccc1OC [WX071]  Recombinant human PDE4B (Homo sapiens)               >             9.30
3  CCOc1cc([C@@H](CS(C)(=O)=O)n2c(=O)n(Cc3ccccc3F)c3cc(C(F)(F)F)cc(F)c32)ccc1OC [WX060]  Recombinant human PDE4B (Homo sapiens)               =             7.46
4  CCOc1cc([C@@H](CS(C)(=O)=O)n2c(=O)n(CC(F)(F)F)c3c(Cl)cccc32)ccc1OC [WX062]  Recombinant human PDE4B (Homo sapiens)               =             7.26

Where these numbers come from: patent US10532986B2
